Each entry below carries its reported binding score.
target: FGFR4 ectodomain (Homo sapiens, UniProt P22455); assay: AVEXIS normalised luminescence

Before answering, review these 6 worked examples.
binder="48 (protein, bait human Fc-tagged dimer) GCIKLKTSYKHEPILLLKNDERIISLNKIIPYLTEEVFISKDNIMTKINVENNICIELIKKHEILNTPIEHFFHFTNREYTIDLRNNDNIYNYAKRILNNKLDFELCNKILSFTIPINYNICSFPSYHNYFLYINYLKDVKIELIISALEKAKFLFLKIPNTFNLNTAHANFNDNDYIIEKGILENDLIKIDISKIIHRYICKKYYLYKSDEQINDDDLRQINNNNANNDISDKEIKMVLMTSHTLSDIIIFPSIIQNVQALKHYKNIKNVVKLKKKIKKRYTEWENWAPCYNVCNNNFAYKCRYYKCTTENQEFCDQNFHMNFAECPFTPCEDAIKKENEKKEIEKDKNKAIIINHENNRDQEGPIDDETMLRYRKNKKISFFMWIINNKK" result=0.752
binder="23 (protein, bait human Fc-tagged dimer) ENVDTFKCNYAKKKKNGHHIKRHITNDEEKKKEYSFLMLGKENEEENKENKENNQNVNKDNNDNNNNEKKNEEQNHNNEKKQEEVINNNNNNVENKKEEENHNNDKKTDEQNHVNEKKQEGENNKHKKDDTIPPEKKINKENLLEYGTHDKEGHFIPSYKTLTDEILSTNNAMEKASSFLKIACSHVMKLIEFIPESKLSSQYIKVDNKNIYLKDIAVECQNIYFNLEKFSMTLIVFNSKINKFIYSQEK" result=0.913
binder="36 (protein, bait human Fc-tagged dimer) QDEKSVKNICVCDFTDKLNFLPLEKTKILCELKPQYGEDIKIIANKEYEINCMNNAKVFCPLKDTFINNANIKLYSPKLHFEIKDITHKGKNAALYYLKIDEEASDIFFSCSIKPKQVSGLLEGEVRVNLKKHINEEYSIFNEEEDVHVCDFSKGNLDITPSAGFYLKNSRNVACIYRVIPNKLFLIKLPKLDIVTEKLLPSIVNCLSEFSFINFALKHVQEGDNYISFNVIFGEFKKHFNLACSLDLSDFQQEPCNLGKTANIAFIFSK" result=0.937
binder="70 (protein, bait human Fc-tagged dimer) NTYIYLKQDSFVFSNEFPTVEEKNQALGENYEIVTLTTKDNHKFTCWYIKTKDSENKPIMLYFQGNGGYLEKYMNLFNLIIERVDVNIFSCSNRGCGSNIAKPSEEYFYKDAHVYIEYVKTKNPKHLFIFGSSMGAAVAIDTALKQHDHISGLIVQNAFTSLKELSRYSHPFLNYFLFDYDMIIRSKMDNEAKIKNIAVPTLFTLSEMDEKVPTSHTRTLFQLSASTNKQLYLSKGGTHPNILKNDDGSYHKAMKKFIVTAISIREKNIQKAVERNPNTPN" result=0.951
binder="2 (protein, bait human Fc-tagged dimer) DFFLRYRTGFIRSRLETYIGNSDVRYNKAFINNRLLNEHAHCDAWSEWSACSKTCDYGIKIRVKISTDQTKSKACSNIAESTICHEHICPRTFEEAEETYLHNKEKEKKKKFRTT" result=1.02
binder="21 (protein, bait human Fc-tagged dimer) SPGNDNNNVNNDGVVHVLSKNIDVKNLQGTFYEIATNAADKIFPGLACRCTKYEFSGLKRDGNLGYVLINFACARNFIFGEKKSEMTFKLILNKPLDENTATVEEFNAAIYLVQGNQQILLNGNINIIYAELNEQNEFEHLILGGQKSIEPMIIMSKYRTVLLDTYNKLINSLYLAGYEPSLLTWPFIIQTDQTFCD" result=1.31

Fill in reported binding score for this entry: 42 (protein, bait human Fc-tagged dimer) QLRFASLGDWGKDTKGQILNAKYFKQFIKNERVTFIVSPGSNFIDGVKGLNDPAWKNLYEDVYSEEKGDMYMPFFTVLGTRDWTGNYNAQLLKGQGIYIEKNGETSIEKDADATNYPKWIMPNYWYHYFTHFTVSSGPSIVKTGHKDLAAAFIFIDTWVLSSNFPYKKIHEKAWNDLKSQLSVAKKIADFIIVVGDQPIYSSGYSRGSSYLAYYLLPLLKDAEVDLYISGHDNNMEVIEDNDMAHITCGSGSMSQGKSGMKNSKSLFFSSDIGFCVHELSNNGIVTKFVSSKKGEVIYTHKLNIKKKKTLDKVNALQHFAALPNVELTDVPSSGP
1.51

Fill in reported binding score for this entry: 64 (protein, bait human Fc-tagged dimer) RMNVVSHNSMKKVGEEGKDEKIISCVVEYVIKGDLSIDDGDFCDSNSICSNNPGLCDNGQVVVPGDYCSNYYDITLVVEESSFVQKDYWLKGTIPFLESMVFNSNVAKDKAHMSVVLFAGKQRVVVPFTDESSQDKNMLLEKINSIDEGIATSSDTLYVNALKYAIENVIFGDGTRKDAPKVAVLFYYGFDYGANKNMIPDVVQTYKEQNVKLIIVGIALGIRDNAYLLADCSIGDENCVNVVFKPWDFVIPAAADVNQKICDKNKA
0.876

Fill in reported binding score for this entry: 85 (protein, bait human Fc-tagged dimer) VKERNNGFPKRGEGRYLFGRNQMKSQDIEKNNKELSNKMDTQDSKQYITYLYHSSICQYCSKVTSMLENNDNVEIIKFKENNKIEDFGKFTKPIVVLLKNINKENSLERSIFYEELKRKGKKVQVPALEVNNIILFESDEIIKFYKKLLQKVSNDDKSSLQNRGNIKNDQKKNNADYDNDYDNDDNNDDNDDDDDNNYNNNNDDGYDYHTS
1.22
